Origin of measurements: the kinase profiling compilation of Christmann-Franck et al. (2016)

Below: a set of entries, each annotated with reported residual activity.
system: MKNK1 (human), Q9BUB5 [T385D; 165-205 del]; test: radiometric filter-binding kinase assay, Kinase HotSpot; settings: compound 0.5 µM; ATP 10 µM
Sequence (Q9BUB5 whole entry, looked up, stated change not applied): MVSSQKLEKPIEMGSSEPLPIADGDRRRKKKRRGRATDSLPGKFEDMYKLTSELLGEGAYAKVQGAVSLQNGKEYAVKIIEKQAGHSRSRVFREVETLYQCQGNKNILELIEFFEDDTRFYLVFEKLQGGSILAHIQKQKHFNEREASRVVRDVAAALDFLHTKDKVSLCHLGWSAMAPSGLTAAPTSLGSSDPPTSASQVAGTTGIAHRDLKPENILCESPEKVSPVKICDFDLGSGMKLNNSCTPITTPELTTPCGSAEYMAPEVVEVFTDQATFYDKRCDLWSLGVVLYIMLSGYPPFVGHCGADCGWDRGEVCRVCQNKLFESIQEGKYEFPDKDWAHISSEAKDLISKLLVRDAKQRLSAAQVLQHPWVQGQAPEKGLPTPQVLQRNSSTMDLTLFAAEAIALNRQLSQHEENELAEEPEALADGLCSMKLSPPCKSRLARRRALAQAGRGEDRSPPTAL
The figure you give is taken to be in %; do not add the unit.

{"columns": ["Smiles repr", "residual activity [%]"],
 "data": [
  ["Cn1sc(=O)n(Cc2ccccc2)c1=O", 98.6]
]}

Request body: readout residual activity, system MKNK1 (human), Q9BUB5 [T385D; 165-205 del], query CCCC(=O)Oc1ccc2[nH]c(C(=O)c3cc4ccccc4[nH]3)cc2c1 . Return the value.
101

Next compound: Cc1nc2cc3nc(-c4cccs4)cnc3cc2n1C
92.7

Next compound: CC(C)c1nn(-c2c(Cl)cccc2Cl)c2nc(Cc3ccc(OCCO)cc3)nc(O)c12
110

Next compound: O=C1NC(=O)c2c1c1c3ccccc3[nH]c1n1cncc21
56.3

Next compound: N#C/C(=C\c1ccc(O)c(O)c1)C(=O)NCc1ccccc1
77.8

Next compound: O=C1Nc2cc(Br)ccc2/C1=C1/Nc2ccccc2/C1=N\O
102

Next compound: CN(C)C[C@H]1CCn2c(c(C3=C(c4cn(C)c5ccccc45)C(=O)NC3=O)c3ccccc32)C1
100

---

biological target: PBK (human) (UniProt Q96KB5); assay: radiometric filter-binding kinase assay, Kinase HotSpot; details: compound 0.5 µM; ATP 10 µM
Sequence (Q96KB5 whole entry, looked up): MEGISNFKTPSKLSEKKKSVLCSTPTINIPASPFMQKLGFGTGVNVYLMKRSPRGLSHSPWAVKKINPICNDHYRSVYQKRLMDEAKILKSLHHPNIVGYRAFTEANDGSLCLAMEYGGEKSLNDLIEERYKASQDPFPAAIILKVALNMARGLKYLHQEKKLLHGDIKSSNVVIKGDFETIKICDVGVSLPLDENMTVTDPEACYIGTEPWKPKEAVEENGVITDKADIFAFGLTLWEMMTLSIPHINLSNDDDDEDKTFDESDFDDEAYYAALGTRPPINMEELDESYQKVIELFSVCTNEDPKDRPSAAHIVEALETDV
Metric: residual activity (%)
The figure you give is taken to be in %; do not add the unit.

Some compounds with known residual activity results, for comparison:
{"columns": ["Smiles repr", "Metric", "Value units", "Numeric readout"],
 "data": [
  ["CN(C)S(=O)(=O)c1ccc2c(c1)/C(=C/c1cc3c([nH]1)CCCC3)C(=O)N2", "residual activity", "%", 99.7],
  ["COc1ccc(C(=O)Nc2sc3c(c2C(N)=O)CCCC3)cc1OC", "residual activity", "%", 103],
  ["O=C1NC(=O)c2c1c1c3ccccc3[nH]c1n1cncc21", "residual activity", "%", 72.4]
]}

Need residual activity of COc1cc2ncnc(Nc3ccc(OCc4ccccc4)cc3)c2cc1OC , thanks.
109

Next compound: O=C1c2ccccc2-c2nc3nnnn3nc21
64.5

Next compound: NC(=O)c1cccc(-c2cc(Nc3ccc(OC(F)(F)F)cc3)ncn2)c1
72.2

---

Below: a set of entries, each annotated with reported residual activity.
biological target: UniProtKB Q96SB4; assay: radiometric filter-binding kinase assay, Kinase HotSpot; conditions: compound 0.5 µM; ATP 10 µM
Sequence (Q96SB4 whole entry, looked up): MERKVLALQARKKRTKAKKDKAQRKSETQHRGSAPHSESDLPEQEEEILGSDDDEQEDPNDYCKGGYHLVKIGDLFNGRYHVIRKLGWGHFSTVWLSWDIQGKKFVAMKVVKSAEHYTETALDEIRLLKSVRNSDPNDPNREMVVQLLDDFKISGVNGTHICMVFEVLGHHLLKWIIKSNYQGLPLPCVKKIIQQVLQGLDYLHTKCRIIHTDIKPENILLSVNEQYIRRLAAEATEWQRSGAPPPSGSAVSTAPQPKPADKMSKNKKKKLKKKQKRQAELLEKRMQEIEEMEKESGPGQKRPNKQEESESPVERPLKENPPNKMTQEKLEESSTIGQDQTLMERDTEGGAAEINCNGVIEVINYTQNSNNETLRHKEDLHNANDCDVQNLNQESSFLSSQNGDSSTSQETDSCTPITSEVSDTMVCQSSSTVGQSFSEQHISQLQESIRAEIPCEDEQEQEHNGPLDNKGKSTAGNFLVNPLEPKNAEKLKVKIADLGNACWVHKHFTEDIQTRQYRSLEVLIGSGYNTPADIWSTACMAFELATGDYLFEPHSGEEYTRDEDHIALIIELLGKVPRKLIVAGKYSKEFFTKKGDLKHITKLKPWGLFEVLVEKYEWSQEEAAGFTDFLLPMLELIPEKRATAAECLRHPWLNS
The figure you give is taken to be in %; do not add the unit.

Some compounds with known residual activity results, for comparison:
{"columns": ["Smiles repr", "residual activity / %"],
 "data": [
  ["Cc1nc(-c2ccccc2)c(-c2ccncc2)o1", 101],
  ["CN(C)S(=O)(=O)c1ccc2c(c1)/C(=C/c1cc3c([nH]1)CCCC3)C(=O)N2", 63.8]
]}

Need residual activity of O=C(c1cc2cc(O)ccc2[nH]1)c1cc2cc(O)ccc2[nH]1 , thanks.
92.2

---

biological target: UniProtKB Q02763; experiment: radiometric filter-binding kinase assay, Kinase HotSpot; settings: compound 0.5 µM; ATP 10 µM
Sequence (Q02763 whole entry, looked up): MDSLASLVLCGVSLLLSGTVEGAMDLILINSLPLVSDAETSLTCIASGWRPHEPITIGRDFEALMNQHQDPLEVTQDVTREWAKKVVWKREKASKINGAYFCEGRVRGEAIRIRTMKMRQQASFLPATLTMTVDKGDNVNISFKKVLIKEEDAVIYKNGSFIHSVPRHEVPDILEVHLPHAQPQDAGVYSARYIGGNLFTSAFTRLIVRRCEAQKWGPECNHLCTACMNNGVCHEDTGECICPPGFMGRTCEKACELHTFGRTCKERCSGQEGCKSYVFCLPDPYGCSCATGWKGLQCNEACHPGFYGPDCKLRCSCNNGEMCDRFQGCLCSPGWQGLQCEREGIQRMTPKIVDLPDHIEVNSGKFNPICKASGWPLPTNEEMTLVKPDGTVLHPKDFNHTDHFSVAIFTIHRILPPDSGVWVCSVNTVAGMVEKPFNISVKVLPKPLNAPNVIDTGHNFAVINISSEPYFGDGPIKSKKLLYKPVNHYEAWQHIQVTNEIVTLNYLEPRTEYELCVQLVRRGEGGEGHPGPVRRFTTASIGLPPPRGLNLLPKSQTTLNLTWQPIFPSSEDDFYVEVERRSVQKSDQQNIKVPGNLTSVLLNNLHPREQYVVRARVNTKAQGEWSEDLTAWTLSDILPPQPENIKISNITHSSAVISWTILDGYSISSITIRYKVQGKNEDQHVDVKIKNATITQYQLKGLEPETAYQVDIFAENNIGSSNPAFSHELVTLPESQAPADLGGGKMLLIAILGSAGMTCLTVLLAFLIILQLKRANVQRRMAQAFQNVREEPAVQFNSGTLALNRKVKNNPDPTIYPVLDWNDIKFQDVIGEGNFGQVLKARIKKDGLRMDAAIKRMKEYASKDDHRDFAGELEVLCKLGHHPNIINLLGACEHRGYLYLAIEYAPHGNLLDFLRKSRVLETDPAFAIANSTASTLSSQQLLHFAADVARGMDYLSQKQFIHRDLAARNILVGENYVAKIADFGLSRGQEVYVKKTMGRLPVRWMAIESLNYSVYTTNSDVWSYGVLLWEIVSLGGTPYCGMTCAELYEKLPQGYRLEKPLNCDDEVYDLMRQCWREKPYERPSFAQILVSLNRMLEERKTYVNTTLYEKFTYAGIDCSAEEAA
Below: a set of entries, each annotated with reported residual activity.
The figure you give is taken to be in %; do not add the unit.

{"columns": ["Smiles repr", "residual activity (%)"],
 "data": [
  ["COc1ccc(Cl)cc1NC(=O)Nc1cc(C)nc2ccccc12", 96.8]
]}

Turning now to a further record.
Need residual activity of Ic1cccc(CSc2nnc(-c3ccncc3)o2)c1 , thanks.
92.6

---

Below: a set of entries, each annotated with reported residual activity.
target: YES1 (human) (UniProt P07947); test: radiometric filter-binding kinase assay, Kinase HotSpot; settings: compound 0.5 µM; ATP 10 µM
Sequence (P07947 whole entry, looked up): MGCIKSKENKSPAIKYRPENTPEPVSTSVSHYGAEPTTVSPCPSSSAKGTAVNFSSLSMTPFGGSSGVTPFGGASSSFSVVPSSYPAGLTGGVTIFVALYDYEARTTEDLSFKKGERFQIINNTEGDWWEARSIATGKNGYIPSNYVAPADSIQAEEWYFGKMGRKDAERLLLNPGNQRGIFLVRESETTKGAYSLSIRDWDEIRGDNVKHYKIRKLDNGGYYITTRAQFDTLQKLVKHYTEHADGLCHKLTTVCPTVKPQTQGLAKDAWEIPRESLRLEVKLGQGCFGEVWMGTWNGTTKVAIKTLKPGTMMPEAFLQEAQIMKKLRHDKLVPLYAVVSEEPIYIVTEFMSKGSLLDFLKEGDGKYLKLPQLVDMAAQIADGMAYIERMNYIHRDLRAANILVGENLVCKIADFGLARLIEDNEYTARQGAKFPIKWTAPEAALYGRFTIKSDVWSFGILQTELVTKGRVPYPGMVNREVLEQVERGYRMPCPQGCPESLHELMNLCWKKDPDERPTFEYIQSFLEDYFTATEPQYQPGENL
The figure you give is taken to be in %; do not add the unit.

Some compounds with known residual activity results, for comparison:
{"columns": ["Smiles repr", "Value units", "residual activity"],
 "data": [
  ["CN(C)CCCn1cc(C2=C(c3c[nH]c4ccccc34)C(=O)NC2=O)c2ccccc21", "%", 84.6],
  ["COc1ccc2c(c1)c(C1=C(c3c[nH]c4ccccc34)C(=O)NC1=O)cn2CCCN(C)C", "%", 90.4],
  ["O=C(c1cc2cc(O)ccc2[nH]1)c1cc2cc(O)ccc2[nH]1", "%", 18.8],
  ["CC(C)(C)c1cc(C=C(C#N)C#N)cc(Br)c1O", "%", 83],
  ["O=C1C(Cl)=C(N2C(=O)CCC2=O)C(=O)c2ccccc21", "%", 103],
  ["COc1ccc(S(=O)(=O)N(CCO)c2ccccc2CN(C)C/C=C/c2ccc(Cl)cc2)cc1", "%", 103],
  ["CCCCc1c(-c2ccc(OC)cc2)[nH]c2nccnc12", "%", 45.7],
  ["COc1cc2ncnc(Nc3ccc(Oc4ccccc4)cc3)c2cc1OC", "%", 7.96],
  ["NC(=O)c1cccc(-c2cc(Nc3ccc(OC(F)(F)F)cc3)ncn2)c1", "%", 87.4],
  ["CN(C)S(=O)(=O)c1ccc2c(c1)/C(=C/c1cc3c([nH]1)CCCC3)C(=O)N2", "%", 13.5]
]}

Need residual activity of COc1ccc(C(=O)Nc2sc3c(c2C(N)=O)CCCC3)cc1OC , thanks.
88.3

Next compound: COc1ccc(Cl)cc1NC(=O)Nc1cc(C)nc2ccccc12
90.1

Next compound: Cc1cncc2cccc(S(=O)(=O)N3CCCN(C(=O)CN)C[C@H]3C)c12
92

Next compound: Cc1nc(-c2ccccc2)c(-c2ccncc2)o1
101

---

Below: a set of entries, each annotated with reported residual activity.
biological target: UniProt Q9H3Y6; test: radiometric filter-binding kinase assay, Kinase HotSpot; conditions: compound 0.5 µM; ATP 10 µM
Sequence (Q9H3Y6 whole entry, looked up): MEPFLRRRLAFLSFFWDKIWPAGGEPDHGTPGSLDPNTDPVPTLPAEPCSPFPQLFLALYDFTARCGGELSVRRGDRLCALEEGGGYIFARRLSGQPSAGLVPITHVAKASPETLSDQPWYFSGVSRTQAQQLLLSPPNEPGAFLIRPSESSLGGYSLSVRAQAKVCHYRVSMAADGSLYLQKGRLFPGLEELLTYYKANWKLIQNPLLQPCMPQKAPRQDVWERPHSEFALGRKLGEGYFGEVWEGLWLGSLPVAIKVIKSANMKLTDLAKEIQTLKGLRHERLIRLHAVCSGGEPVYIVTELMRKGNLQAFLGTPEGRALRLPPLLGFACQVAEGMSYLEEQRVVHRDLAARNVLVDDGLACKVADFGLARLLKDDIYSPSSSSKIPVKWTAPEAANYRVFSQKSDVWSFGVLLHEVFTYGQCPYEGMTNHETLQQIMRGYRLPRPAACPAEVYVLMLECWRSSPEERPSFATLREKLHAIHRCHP
The figure you give is taken to be in %; do not add the unit.

{"columns": ["Smiles repr", "Metric", "Numeric readout"],
 "data": [
  ["O=C1NC(=O)c2c1c1c3ccccc3[nH]c1n1cncc21", "residual activity", 100],
  ["COc1ccc(C(=O)Nc2sc3c(c2C(N)=O)CCCC3)cc1OC", "residual activity", 91],
  ["Cc1cccc(-c2nc(C(C)(C)C)[nH]c2-c2ccc3c(c2)OCO3)n1", "residual activity", 102]
]}

Need residual activity of COc1cc(Nc2c(C#N)cnc3cc(OCCCN4CCN(C)CC4)c(OC)cc23)c(Cl)cc1Cl , thanks.
90.6

Next molecule: C[C@@H]1CCN(C(=O)CC#N)C[C@@H]1N(C)c1ncnc2[nH]ccc12
95.8

---

target: FLT1 (human) (UniProt P17948); assay: radiometric filter-binding kinase assay, Kinase HotSpot; settings: compound 0.5 µM; ATP 10 µM
Sequence (P17948 whole entry, looked up): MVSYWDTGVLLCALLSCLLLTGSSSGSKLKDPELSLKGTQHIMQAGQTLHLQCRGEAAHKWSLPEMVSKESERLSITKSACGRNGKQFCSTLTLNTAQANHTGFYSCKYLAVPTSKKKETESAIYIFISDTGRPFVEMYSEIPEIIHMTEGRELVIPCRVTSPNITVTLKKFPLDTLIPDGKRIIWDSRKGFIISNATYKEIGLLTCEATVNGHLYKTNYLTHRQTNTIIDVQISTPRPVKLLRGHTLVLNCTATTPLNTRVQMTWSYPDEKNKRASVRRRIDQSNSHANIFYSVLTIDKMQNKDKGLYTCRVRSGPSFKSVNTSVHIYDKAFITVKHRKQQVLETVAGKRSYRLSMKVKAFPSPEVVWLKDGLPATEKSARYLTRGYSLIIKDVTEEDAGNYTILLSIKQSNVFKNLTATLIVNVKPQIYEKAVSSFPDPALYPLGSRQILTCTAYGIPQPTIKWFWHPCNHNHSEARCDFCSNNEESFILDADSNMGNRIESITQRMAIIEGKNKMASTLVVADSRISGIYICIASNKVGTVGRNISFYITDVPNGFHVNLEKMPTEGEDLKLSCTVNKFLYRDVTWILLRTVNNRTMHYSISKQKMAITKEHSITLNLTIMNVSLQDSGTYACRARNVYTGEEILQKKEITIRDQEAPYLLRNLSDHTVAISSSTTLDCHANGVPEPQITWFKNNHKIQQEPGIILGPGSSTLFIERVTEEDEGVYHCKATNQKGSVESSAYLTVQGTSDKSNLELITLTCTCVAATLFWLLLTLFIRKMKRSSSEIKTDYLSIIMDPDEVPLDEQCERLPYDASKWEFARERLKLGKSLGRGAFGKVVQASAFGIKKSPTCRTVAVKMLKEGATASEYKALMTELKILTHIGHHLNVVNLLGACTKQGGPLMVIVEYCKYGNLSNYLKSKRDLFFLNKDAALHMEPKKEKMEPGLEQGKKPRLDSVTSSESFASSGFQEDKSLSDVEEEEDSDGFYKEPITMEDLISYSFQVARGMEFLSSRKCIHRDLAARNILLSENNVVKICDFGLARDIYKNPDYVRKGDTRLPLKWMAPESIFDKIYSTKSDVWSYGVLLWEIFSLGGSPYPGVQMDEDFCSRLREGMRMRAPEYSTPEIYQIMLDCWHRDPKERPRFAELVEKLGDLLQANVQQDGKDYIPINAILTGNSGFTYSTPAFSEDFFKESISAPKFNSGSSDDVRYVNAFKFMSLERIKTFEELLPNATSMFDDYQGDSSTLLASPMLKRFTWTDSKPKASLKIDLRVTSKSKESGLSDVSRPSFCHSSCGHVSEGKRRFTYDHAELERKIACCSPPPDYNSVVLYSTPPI
Metric: residual activity (%)
The figure you give is taken to be in %; do not add the unit.

Some compounds with known residual activity results, for comparison:
{"columns": ["Smiles repr", "residual activity [%]"],
 "data": [
  ["Cc1cncc2cccc(S(=O)(=O)N3CCCN(C(=O)CN)C[C@H]3C)c12", 96.9],
  ["N#Cc1c[nH]c2c[nH]/c(=N\\Cc3cccnc3)cc2/c1=N\\c1ccc(F)c(Cl)c1", 88],
  ["C[C@@H]1CCN(C(=O)CC#N)C[C@@H]1N(C)c1ncnc2[nH]ccc12", 101],
  ["O=C(c1cc2cc(O)ccc2[nH]1)c1cc2cc(O)ccc2[nH]1", 81.3],
  ["Ic1cccc(CSc2nnc(-c3ccncc3)o2)c1", 91]
]}

Need residual activity of CS(=O)(=O)CCNCc1ccc(-c2ccc3ncnc(Nc4ccc(OCc5cccc(F)c5)c(Cl)c4)c3c2)o1 , thanks.
100

Next compound: Cc1nc(-c2ccccc2)c(-c2ccncc2)o1
79.4

Next compound: COc1ccc(C(=O)Nc2sc3c(c2C(N)=O)CCCC3)cc1OC
99.1

Next compound: COc1cc2ncnc(Nc3ccc(Oc4ccccc4)cc3)c2cc1OC
79.8

Next compound: CN(C)c1ccc(/C=C2\C(=O)Nc3ccccc32)cc1
92

Next compound: O=C1c2ccccc2-c2nc3nnnn3nc21
3.06

Next compound: Cc1cccc(-c2nc(C(C)(C)C)[nH]c2-c2ccc3c(c2)OCO3)n1
84.3

Next compound: CCCCc1c(-c2ccc(OC)cc2)[nH]c2nccnc12
103

Next compound: Fc1ccc(-c2nc3n(c2-c2ccncc2)CCS3)cc1
84.1

Next compound: c1ccc2c(-c3ccncc3)c[nH]c2c1
97.9

Next compound: COc1ccc(S(=O)(=O)N(CCO)c2ccccc2CN(C)C/C=C/c2ccc(Cl)cc2)cc1
94.7

Next compound: NC(=O)c1cccc(-c2cc(Nc3ccc(OC(F)(F)F)cc3)ncn2)c1
98.4

Next compound: COc1ccc(Cl)cc1NC(=O)Nc1cc(C)nc2ccccc12
86.2

Next compound: O=C1NC(=O)c2c1c1c3ccccc3[nH]c1n1cncc21
58

Next compound: CN(C)S(=O)(=O)c1ccc2c(c1)/C(=C/c1cc3c([nH]1)CCCC3)C(=O)N2
84.9

Next compound: CO[C@@H]1[C@H](N(C)C(=O)c2ccccc2)C[C@H]2O[C@]1(C)n1c3ccccc3c3c4c(c5c6ccccc6n2c5c31)C(=O)NC4
37

Next compound: COc1ccc2c(c1)/C(=C/c1cnc[nH]1)C(O)=N2
73.9
